# Measurement context: in ethylbenzene, 288.25 K
Quantity name: solubility (mole fraction)
Enter a number only.

# input compound: `CCCCCCCCCCCCCCCCCCCC` ; wanted: its solubility (mole fraction)
0.116

---

# Measurement context: in ethylbenzene, 300.54 K
Quantity name: solubility (mole fraction)
Lab note: write the figure by itself, no unit.

GET /values?readout=solubility (mole fraction)&item= `CCCCCCCCCCCCCCCCCCCCCC`
0.186
